biological target: motilin receptor (Oryctolagus cuniculus); construct: from tissue; host or cells: rabbit antral smooth muscle membranes; test: Determination of motilin receptor binding affinity (displacement of [125I-Tyr7, Nle13]motilin(porcine)); design: species or system rabbit; settings: negative logarithm of the concentration displacing 50% of [125I-Tyr7, Nle13]motilin(porcine) from rabbit antral smooth muscle membranes; read-out: pIC50 (converted)
Sequence (G1T803 1-400): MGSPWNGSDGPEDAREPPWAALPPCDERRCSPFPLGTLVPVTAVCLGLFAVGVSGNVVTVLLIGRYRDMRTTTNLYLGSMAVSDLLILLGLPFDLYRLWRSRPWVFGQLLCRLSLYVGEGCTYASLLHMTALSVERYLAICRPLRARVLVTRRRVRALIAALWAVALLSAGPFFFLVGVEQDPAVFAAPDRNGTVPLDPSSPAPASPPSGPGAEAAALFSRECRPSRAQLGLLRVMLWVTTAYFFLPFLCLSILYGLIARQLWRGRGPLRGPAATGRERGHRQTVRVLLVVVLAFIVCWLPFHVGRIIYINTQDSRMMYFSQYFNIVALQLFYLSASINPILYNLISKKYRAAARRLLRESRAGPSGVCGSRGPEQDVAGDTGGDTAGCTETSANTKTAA
Square brackets hold non-standard residues; d marks the D form. Peptide text beside a SMILES is read from it. * marks the point of attachment. X5 = C=CC[N+](C)(C)[C@@H](Cc1ccccc1)C(=O)*
Parameter measured: IC50 (nM)
Note: unit nM is implicit; provide only the numeric part.

For this compound ( CC[C@H](C)[C@H](NC(=O)[C@@H]1CCCN1C(=O)[C@@H](NC(=O)[C@@H](N)Cc1ccccc1)C(C)C)C(=O)N[C@@H](Cc1ccccc1)C(=O)N[C@H](C(=O)N[C@@H](Cc1ccc(O)cc1)C(=O)NCC(=O)N[C@@H](CCC(=O)O)C(=O)N[C@@H](CC(C)C)C(=O)N[C@@H](CCC(N)=O)C(=O)N[C@H](CCCNC(=N)N)C(=O)N[C@@H](CC(C)C)C(=O)N[C@@H](CCC(N)=O)C(N)=O)[C@@H](C)O [[D-Arg^13, Leu^13]pMOT(1-14) amide] (H-FVPIFTYGELQ[dR]LQ-NH2) ), measured IC50 is 2.45

response.value for C=CC[N+](C)(C)[C@@H](Cc1ccccc1)C(=O)N[C@H](C(=O)N1CCC[C@H]1C(=O)N[C@H](C(=O)N[C@@H](Cc1ccccc1)C(=O)N[C@H](C(=O)N[C@@H](Cc1ccc(O)cc1)C(=O)NCC(=O)N[C@@H](CCC(=O)O)C(=O)N[C@@H](CC(C)C)C(=O)N[C@@H](CCC(N)=O)C(=O)N[C@@H](CCCNC(=N)N)C(=O)N[C@@H](CC(C)C)C(=O)N[C@@H](CCC(N)=O)C(N)=O)[C@@H](C)O)[C@@H](C)CC)C(C)C (X5-VPIFTYGELQRLQ-NH2) (field: IC50) = 1.74
